The measurements presented in this section are drawn from patent US11130780B2.

target: thrombin (Homo sapiens, UniProt P00734); assay: Chromogenic kinetic enzyme assay of thrombin; assay type: biochemical; conditions: Table 6.2; headed Fluorogenic Assay; read-out: Thrombin Ki
Starred links: 1 amine or outer side, 2 acyl side, 3 side chain; linkers in the order of their positions; H or OH if unused. Non-standard residues stand in square brackets, D forms with d. Residues, ends and D or L forms follow the SMILES beside them. X1 = N=C(N)NCCC[C@H](N[*:1])C(=O)c1nc2ccc(C(=O)[*:2])cc2s1
Note to self: Ki under 2 µM means criterion met, ties and anything higher get criterion not met.

Illustrative cases are given below, each with its answer.
{"molecule": "N=C(N)NCCC[C@H](NC(=O)[C@H](Cc1ccccc1)NC(=O)OCC1c2ccccc2-c2ccccc21)C(=O)c1nc2ccccc2s1", "class-name": "criterion not met"}
{"molecule": "CC(C)C[C@H](NC(=O)[C@@H](N)Cc1c[nH]c2ccccc12)C(=O)N[C@@H](CCCNC(=N)N)C(=O)c1nc2ccc(C(=O)N[C@H](C(N)=O)C(C)C)cc2s1 [Compound 7181, H-WLR-kbt V amide]", "class-name": "criterion met"}
{"molecule": "CC(C)C[C@H](NC(=O)[C@@H](N)CCCNC(=N)N)C(=O)N[C@@H](CCCNC(=N)N)C(=O)c1nc2ccc(C(=O)N[C@H](C(N)=O)C(C)C)cc2s1 [Compound 7180, H-RLR-kbt V amide]", "class-name": "criterion met"}

Strictly below 2 µM: is that where Ki of CC(=O)N[C@@H](CCCCN)C(=O)N[C@@H](CCCNC(=N)N)C(=O)N[C@@H](CC(C)C)C(=O)N[C@@H](CCCNC(=N)N)C(=O)c1nc2ccc(C(=O)NCc3ccc(C(=O)O)cc3)cc2s1 [Compound 7164, Ac-KRLR(SEQ ID NO: 8)-kbt-Benzyl-3-COOH] sits?
criterion met

Same for COC(=O)c1cccc(CNC(=O)c2ccc3nc(C(=O)[C@H](CCCNC(=N)N)NC(=O)[C@H](CC(C)C)NC(=O)[C@H](CCCNC(=N)N)NC(=O)[C@H](CCCCN)NC(C)=O)sc3c2)c1 [Compound 7159, Ac-KRLR(SEQ ID NO: 8)-kbt-Benzyl-3-COOMe]
criterion met

Could you do the same for CC(=O)N[C@@H](CCCCN)C(=O)N[C@@H](CCC(N)=O)C(=O)N[C@@H](CC(C)C)C(=O)N[C@@H](CCCNC(=N)N)C(=O)c1nc2ccc(C(=O)N[C@H](C(N)=O)C(C)C)cc2s1 [Compound 7055, Ac-KQLR(SEQ ID NO: 1)-Kbt-Val—NH2] (Ac-KQL[X1]V-NH2) , please?
criterion not met

Could you do the same for CC(=O)N[C@@H](CO)C(=O)N[C@@H](CCCCN)C(=O)N[C@@H](CC(C)C)C(=O)N[C@@H](CCCNC(=N)N)C(=O)c1nc2ccc(C(=O)N[C@@H](Cc3ccccc3)C(N)=O)cc2s1 [Compound 7125, Ac-SKLR(SEQ ID NO: 10)-Kbt-Phe— NH2] (Ac-SKL[X1]F-NH2) , please?
criterion not met

* * *

target: thrombin (Homo sapiens, UniProt P00734); test: Chromogenic kinetic enzyme assay of thrombin; assay type: biochemical; settings: Table 9.4; read-out: Thrombin Ki
quantity-kind: pKi
Numbers only, as −log10 of the molar value.

Which pKi reading was recorded for the compound N=C(N)c1cccc(C[C@H](NS(=O)(=O)c2ccc3ccccc3c2)C(=O)N2CCN(C(=O)NCc3ccc(Br)cc3)CC2)c1 [Compound 25a] ?
5.51

* * *

biological target: matriptase (Homo sapiens, UniProt Q9Y5Y6); construct: Charles Craik, UCSF (obtained from another laboratory); test: Fluorescent kinetic enzyme inhibitor assay of matriptase; type: biochemical; settings: Table 9.1; Fluorogenic Assay; listed as FMF-1-278-003
Sequence (Q9Y5Y6 615-855 limits assumed): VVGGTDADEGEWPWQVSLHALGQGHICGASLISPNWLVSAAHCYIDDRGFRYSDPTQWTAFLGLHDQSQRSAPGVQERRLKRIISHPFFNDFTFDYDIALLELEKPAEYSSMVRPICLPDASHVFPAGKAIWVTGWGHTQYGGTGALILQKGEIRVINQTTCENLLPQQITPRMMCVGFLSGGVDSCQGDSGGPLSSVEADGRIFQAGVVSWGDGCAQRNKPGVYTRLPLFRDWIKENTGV
quantity-kind: Ki (µM)
Numbers only, in µM.

// query Ki value for entry CCCCCCNC(=O)N1CCN(C(=O)[C@H](Cc2cccc(C(=N)N)c2)NS(=O)(=O)c2ccc3ccccc3c2)CC1 [Compound 25d]
14.9

* * *

Kindly state pKi for each of the entries shown.
molecular target: Factor Xa (Homo sapiens, UniProt P00742); assay: Chromogenic kinetic enzyme assay of Factor Xa; type: biochemical; conditions: Table 6.2; headed Fluorogenic Assay; read-out: Factor Xa Ki
Sequence (P00742 235-488 limits assumed): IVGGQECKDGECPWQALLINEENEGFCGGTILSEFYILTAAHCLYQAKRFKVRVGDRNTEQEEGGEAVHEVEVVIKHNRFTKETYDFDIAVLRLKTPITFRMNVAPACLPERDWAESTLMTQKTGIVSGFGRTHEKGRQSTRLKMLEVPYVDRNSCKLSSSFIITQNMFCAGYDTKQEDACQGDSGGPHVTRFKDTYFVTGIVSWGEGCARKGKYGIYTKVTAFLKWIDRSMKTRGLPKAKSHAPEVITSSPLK
Sequence (P00742 41-179 partner limits assumed): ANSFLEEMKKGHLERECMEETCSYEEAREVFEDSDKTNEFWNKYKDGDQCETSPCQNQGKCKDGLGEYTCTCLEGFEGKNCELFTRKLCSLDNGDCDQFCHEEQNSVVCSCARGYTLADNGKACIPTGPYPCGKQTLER
One number for each entry, as −log10 of the molar value.

Give measured pKi for every item shown.
1. N=C(N)NCCC[C@H](NC(=O)[C@H](Cc1ccccc1)NC(=O)OCC1c2ccccc2-c2ccccc21)C(=O)c1nc2ccccc2s1 [Compound 7187-14, Fmoc-FR-kbt]
2. CC(=O)N[C@@H](CO)C(=O)N[C@@H](CCCCN)C(=O)N[C@@H](CC(C)C)C(=O)N[C@@H](CCCNC(=N)N)C(=O)c1nc2ccc(C(=O)NC3CCNCC3)cc2s1 [Compound 7140]
3. COC(=O)c1ccc(CNC(=O)c2ccc3nc(C(=O)[C@H](CCCNC(=N)N)NC(=O)[C@H](CC(C)C)NC(=O)[C@H](CCCNC(=N)N)NC(=O)[C@H](CCCCN)NC(C)=O)sc3c2)cc1 [Compound 7158, Ac-KRLR(SEQ ID NO: 8)-kbt-Benzyl-4-COOMe]
4. CC(=O)N[C@@H](CO)C(=O)N[C@@H](CCCCN)C(=O)N[C@@H](CC(C)C)C(=O)N[C@@H](CCCNC(=N)N)C(=O)c1nc2ccc(C(=O)NCc3ccccc3)cc2s1 [Compound 7139, Ac-SKLR(SEQ ID NO: 10)-Kbt- benzylamide]

7.55
6.35
8.05
6.72

* * *

molecular target: hepsin (Homo sapiens); construct: purchased R&D Systems 4776-SE-010; assay: Fluorescent kinetic enzyme inhibitor assay of hepsin; format: biochemical; conditions: read-out: Ki for hepsin
Sequence (P05981 163-417 limits assumed): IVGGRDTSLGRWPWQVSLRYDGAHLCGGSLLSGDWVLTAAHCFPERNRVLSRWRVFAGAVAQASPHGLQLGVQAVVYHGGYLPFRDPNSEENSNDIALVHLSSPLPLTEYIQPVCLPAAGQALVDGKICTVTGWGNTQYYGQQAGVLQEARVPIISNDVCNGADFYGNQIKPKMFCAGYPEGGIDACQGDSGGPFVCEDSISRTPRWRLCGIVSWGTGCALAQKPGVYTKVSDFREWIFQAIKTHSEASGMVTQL
Sequence (P05981 45-162 partner limits assumed): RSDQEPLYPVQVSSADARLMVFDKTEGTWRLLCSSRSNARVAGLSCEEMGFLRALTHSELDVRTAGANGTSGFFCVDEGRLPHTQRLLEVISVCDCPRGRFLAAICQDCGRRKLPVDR
quantity-kind: Ki (nM)
Numbers only, in nM.

Notebook entry, hepsin (Homo sapiens) assay: Ki of CC(=O)N[C@@H](CO)C(=O)N[C@@H](Cc1c[nH]c2ccccc12)C(=O)N[C@@H](CC(C)C)C(=O)N[C@@H](CCCNC(=N)N)C(=O)c1nccs1 [Compound 6g, Ac-SWLR(SEQ ID NO: 17)-kt] = ?
1.2

* * *

Would you kindly list Ki for each of these compounds?
target: HGFA (Homo sapiens); construct: His6 tag (N); seven amino acid spacer and seven amino acid TEV cleavage site (N); Honey Bee melittin signal peptide (N); made in house; host or cells: High 5 insect cells (baculovirus; virus raised in Sf9); assay: Fluorescent kinetic enzyme inhibitor assay of HGFA; format: biochemical; conditions: Table 9.1; Fluorogenic Assay; read-out: HGFA Ki
Sequence (Q04756 373-655): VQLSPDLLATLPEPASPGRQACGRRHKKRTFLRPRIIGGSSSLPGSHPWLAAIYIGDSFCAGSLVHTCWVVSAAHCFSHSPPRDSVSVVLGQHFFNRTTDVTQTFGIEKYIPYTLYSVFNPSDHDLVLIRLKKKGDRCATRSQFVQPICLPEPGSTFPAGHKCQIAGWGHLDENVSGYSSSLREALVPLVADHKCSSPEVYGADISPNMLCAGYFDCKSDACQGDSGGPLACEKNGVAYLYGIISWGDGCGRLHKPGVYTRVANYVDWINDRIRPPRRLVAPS
Give bare numbers, in µM.

{"compound": "N=C(N)c1cccc(C[C@H](NS(=O)(=O)c2ccc3ccccc3c2)C(=O)N2CCC(c3ccccc3)CC2)c1 [Compound 16]", "quantity-kind": "Ki", "measured-number": 10.1}

Lab note: next compound to report on.
Lab note: need Ki with HGFA (Homo sapiens) for entry N=C(N)c1cccc(C[C@H](NS(=O)(=O)c2ccc3ccccc3c2)C(=O)N2CCN(C(=O)NCc3ccc(Br)cc3)CC2)c1 [Compound 25a] , please look it up.
16.2

* * *

# IC50 per entry for hepsin (Homo sapiens, UniProt P05981)
Give bare numbers, in nM.

# annotated cases, reported IC50 shown
{"molecule": "CC(=O)N[C@@H](CO)C(=O)N[C@@H](CCCNC(=N)N)C(=O)N[C@@H](CC(C)C)C(=O)N[C@@H](CCCNC(=N)N)C(=O)c1nccs1 [Compound 6e, Ac-SRLR(SEQ ID NO: 15)-kt]", "reading-unit": "nM", "IC50": 5}
{"molecule": "CC(=O)N[C@@H](CCCCN)C(=O)N[C@@H](CCCNC(=N)N)C(=O)N[C@@H](CC(C)C)C(=O)N[C@@H](CCCNC(=N)N)C(=O)c1nccs1 [Compound 5g, Ac-KRLR(SEQ ID NO: 8)-kt]", "reading-unit": "nM", "IC50": 5}
{"molecule": "CC(=O)N[C@@H](CO)C(=O)N[C@@H](CCCCN)C(=O)N[C@@H](Cc1ccccc1)C(=O)N[C@@H](CCCNC(=N)N)C(=O)c1nccs1 [Compound 6c, Ac-SKFR(SEQ ID NO: 13)-kt]", "reading-unit": "nM", "IC50": 51}
{"molecule": "CC(=O)N[C@@H](CCCCN)C(=O)N[C@@H](Cc1ccccc1)C(=O)N[C@@H](CC(C)C)C(=O)N[C@@H](CCCNC(=N)N)C(=O)c1nccs1 [Compound 5d, Ac-KFLR(SEQ ID NO: 5)-kt]", "reading-unit": "nM", "IC50": 22}

For each of the molecules below, state IC50.
1. CC(=O)N[C@@H](Cc1c[nH]c2ccccc12)C(=O)N[C@@H](CCCNC(=N)N)C(=O)N[C@@H](CC(C)C)C(=O)N[C@@H](CCCNC(=N)N)C(=O)c1nccs1 [Compound 5h, Ac-WRLR(SEQ ID NO: 9)-kt]
2. CC(=O)N[C@@H](CO)C(=O)N[C@@H](Cc1c[nH]cn1)C(=O)N[C@@H](CC(C)C)C(=O)N[C@@H](CCCNC(=N)N)C(=O)c1nccs1 [Compound 6a, Ac-SHLR(SEQ ID NO: 11)-kt]
3. CC(=O)N[C@@H](Cc1c[nH]c2ccccc12)C(=O)N[C@@H](CCC(N)=O)C(=O)N[C@@H](CC(C)C)C(=O)N[C@@H](CCCNC(=N)N)C(=O)c1nccs1 [Compound 5b, Ac-WQLR(SEQ ID NO: 3)-kt]
4. CC(=O)N[C@@H](Cc1c[nH]c2ccccc12)C(=O)N[C@@H](CCCCN)C(=O)N[C@@H](CC(C)C)C(=O)N[C@@H](CCCNC(=N)N)C(=O)c1nccs1 [Compound 6b, Ac-WKLR(SEQ ID NO: 12)-kt]

1. 0.3
2. 5
3. 1
4. 4
